# targetOrTestSystem: hROMK (hKir1.1) (Homo sapiens)
# Construct: expressed in transfected cells
# procedureDetails: Thallium Flux Assay
# Format: cell-based
# particulars: Thallium Flux IC50
propertyMeasured: pIC50
Answers are plain numbers, as −log10 of the molar value.

Record excerpt, results attached:
>>> numericreadout("Cc1c([C@@H]2CN3CCN(C(=O)Cc4cnc(-n5cnnn5)cn4)C[C@@H]3CO2)ccc2c1COC2=O")
6.16
>>> numericreadout("Cc1c([C@H]2CN3CCN(C(=O)Cc4cccc(-n5cnnn5)n4)C[C@H]3CO2)ccc(F)c1C#N")
6.60
>>> numericreadout("O=C1OCCc2cc([C@H]3CN4CCN(C(=O)Cc5ccc(-n6cnnn6)nc5)C[C@@H]4CO3)ccc21")
6.92
>>> numericreadout("Cc1cc(-n2cnnn2)cnc1CC(=O)N1CCN2C[C@H](c3ccc(F)c(C#N)c3C)OC[C@@H]2C1")
6.62
>>> numericreadout("O=C1OCCc2cc([C@@H]3CN4CCN(C(=O)Cc5cnc(-n6cnnn6)nc5)C[C@H]4CO3)ccc21")
6.62

Parameter requested: pIC50. Apply to each item below.
1. Cc1c([C@H]2CN3CCN(C(=O)Cc4ncc(-n5cnnn5)cc4Cl)C[C@H]3CO2)ccc(F)c1C#N
2. COc1ccc([C@H]2CN3CCN(C(=O)Cc4ccc(-n5cnnn5)nc4)C[C@H]3CO2)c(C)c1C#N

6.77
6.54

----------
# targetOrTestSystem: Kir1.1 (ROMK1) (Homo sapiens, UniProt P48048)
# procedureDetails: Electrophysiology Assay (whole cell voltage clamp, IonWorks Quattro)
Classify: True when IC50 is strictly less than 90 nM; False when IC50 is not.

Previously resolved entries follow.
>>> assignedclass("Cc1c([C@H]2CN3CCN(C(=O)Cc4ccc(-n5cnnn5)cn4)C[C@H]3CO2)ccc(F)c1C#N")
"False"
>>> assignedclass("Cc1c([C@H]2CN3CCN(C(=O)Cc4ccc(-n5cnnn5)nc4)C[C@H]3CO2)ccc(F)c1C#N")
"True"
>>> assignedclass("Cc1c([C@@H]2CN3CCN(C(=O)Cc4ccc(-n5cnnn5)nc4)C[C@@H]3CO2)ccc(F)c1C#N")
"True"

Is 90 nM strictly greater than the compound's reported IC50? compound: `N#Cc1cc([C@@H]2CN3CCN(C(=O)Cc4ccc(-n5cnnn5)cn4)C[C@H]3CO2)ccc1F`
False

Now consider `Cc1c([C@@H]2CN3CCN(C(=O)Cc4cnc(-n5cnnn5)nc4)C[C@@H]3CO2)ccc(F)c1C#N` .
True

Now consider `Cc1c([C@@H]2CN3CCN(C(=O)Cc4ccc(-n5cnnn5)nc4)C[C@H]3CN2)ccc(F)c1C#N` .
True

----------
# targetOrTestSystem: hROMK (hKir1.1) (Homo sapiens, UniProt P48048)
# Construct: expressed in transfected cells
# procedureDetails: Thallium Flux Assay
# Format: cell-based
# particulars: HEK293 cells stably expressing hROMK (hKir1.1), FLIPR-Tetra; read-out: Thallium Flux IC50
propertyMeasured: IC50 (nM)
Give bare numbers, in nM.

Record excerpt, results attached:
>>> numericreadout("Cc1c([C@@H]2CN3CCN(C(=O)Cc4cnc(-n5cnnn5)nc4C(F)(F)F)C[C@H]3CO2)ccc(F)c1C#N")
260
>>> numericreadout("Cc1c([C@H]2CN3CCN(C(=O)Cc4ccc(-n5cnnn5)nn4)C[C@H]3CO2)ccc(F)c1C#N")
300

Turning to the following compound.
Entry under review: `Cc1c([C@H]2CN3CCN(C(=O)Cc4cccc(-n5cnnn5)n4)C[C@@H]3CO2)ccc(F)c1C#N` . Reported IC50?
390

----------
Kindly state pIC50 for each of the entries shown.
# targetOrTestSystem: hROMK (hKir1.1) (Homo sapiens)
# Construct: expressed in transfected cells
# procedureDetails: Thallium Flux Assay
# Assay type: cell-based
# particulars: Thallium Flux IC50
Numbers only, as −log10 of the molar value.

>>> numericreadout("N#Cc1c(F)ccc([C@@H]2CN3CCN(C(=O)Cc4ccc(-n5cnnn5)nc4)C[C@@H]3CO2)c1F")
7.05

Parameter requested: pIC50. Apply to each item below.
1. Cc1c([C@H]2CN3CCN(C(=O)Cc4cnc(-n5cnnn5)nc4)C[C@H]3CO2)ccc(F)c1C#N
2. Cc1c([C@H]2CN3CCN(C(=O)Cc4ccc(-n5cnnn5)nc4)C[C@H]3CS2(=O)=O)ccc(F)c1C#N
3. Cc1c([C@@H]2CN3CCN(C(=O)Cc4cnc(-n5cnnn5)cn4)C[C@H]3CO2)ccc(F)c1C#N
4. Cc1c(C2CN3CCN(C(=O)Cc4ccc(-n5cnnn5)nc4)CC3CCO2)ccc2c1COC2=O (single isomer, unassigned) [Example 164]
5. C[C@H]1Cc2cc([C@@H]3CN4CCN(C(=O)Cc5cnc(-n6cnnn6)nc5)C[C@H]4CO3)ccc2C(=O)O1
6. N#Cc1c(F)ccc([C@@H]2CN3CCN(C(=O)Cc4cnc(-n5cnnn5)nc4)C[C@@H]3CO2)c1Cl
7. O=C1OCc2c1ccc([C@H]1CN3CCN(C(=O)Cc4ccc(-n5cnnn5)nc4)C[C@H]3CO1)c2Cl

[7.00, 6.55, 6.89, 6.19, 6.77, 7.22, 7.05]

----------
# targetOrTestSystem: hROMK (hKir1.1) (Homo sapiens, UniProt P48048)
# Construct: expressed in transfected cells
# procedureDetails: Thallium Flux Assay
# Format: cell-based
# particulars: HEK293 cells stably expressing hROMK (hKir1.1), FLIPR-Tetra; read-out: Thallium Flux IC50
propertyMeasured: IC50 (nM)
Numbers only, in nM.

>>> numericreadout("Cc1c([C@@H]2CN3CCN(C(=O)Nc4ccc(-n5cnnn5)cn4)C[C@H]3CO2)ccc(F)c1C#N [Example 201]")
320
>>> numericreadout("Cc1cc2c(cc1[C@@H]1CN3CCN(C(=O)Cc4ccc(-n5cnnn5)nc4)C[C@H]3CO1)COC2=O [Example 72]")
750
>>> numericreadout("Cc1c([C@@H]2CN3CCN(C(=O)Cc4cnc(-n5cnnn5)nc4)C[C@H]3CO2)ccc2c1COC2=O [Example 16]")
480
>>> numericreadout("Cc1c([C@@H]2CN3CCN(C(=O)Cc4cnc(-n5cnnn5)c(F)c4)C[C@H]3CO2)ccc(F)c1C#N [Example 148]")
80
>>> numericreadout("Cc1c([C@H]2CN3CCN(C(=O)Cc4ccc(-n5cnnn5)nc4)C[C@H]3CO2)ccc(Cl)c1C#N [Example 64]")
680

Parameter requested: IC50. Apply to each item below.
1. Cc1c([C@H]2CN3CCN(C(=O)Cc4ccc(-n5cnnn5)cn4)C[C@H]3CS2)ccc(F)c1C#N [Example 186]
2. Cc1nc(-n2cnnn2)nc(C)c1CC(=O)N1CCN2C[C@H](c3ccc(F)c(C#N)c3C)OC[C@@H]2C1 [Example 150]

1. 270
2. 290

----------
# targetOrTestSystem: hROMK (hKir1.1) (Homo sapiens, UniProt P48048)
# Construct: expressed in transfected cells
# Sequence (P48048 1-391): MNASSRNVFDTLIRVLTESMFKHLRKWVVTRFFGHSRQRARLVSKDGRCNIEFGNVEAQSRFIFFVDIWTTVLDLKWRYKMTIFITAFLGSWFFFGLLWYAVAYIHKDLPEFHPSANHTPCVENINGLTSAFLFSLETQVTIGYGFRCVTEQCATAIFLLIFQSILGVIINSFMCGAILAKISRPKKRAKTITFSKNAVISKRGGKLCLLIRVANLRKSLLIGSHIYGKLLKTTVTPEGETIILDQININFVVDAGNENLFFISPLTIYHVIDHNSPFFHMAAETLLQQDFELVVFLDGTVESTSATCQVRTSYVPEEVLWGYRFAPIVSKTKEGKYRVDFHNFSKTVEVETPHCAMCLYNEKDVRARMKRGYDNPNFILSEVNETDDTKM
# procedureDetails: Thallium Flux Assay
# Assay type: cell-based
# particulars: Thallium Flux IC50
propertyMeasured: pIC50
Numbers only, as −log10 of the molar value.

>>> numericreadout("Cc1c([C@@H]2CN3CCN(C(=O)Cc4cnc(-n5cnnn5)nc4)C[C@@H]3CO2)ccc(F)c1C#N [Example 13]")
6.96
>>> numericreadout("Cc1c(C#N)cccc1[C@@H]1CN2CCN(C(=O)Cc3ccc(-n4cnnn4)nc3)C[C@H]2CO1 [Example 91]")
7.22

Turning to the following compound.
Entry under review: Cc1c([C@@H]2CN3CCN(C(=O)Cc4ccc(-n5cnnn5)nc4)C[C@@H]3CO2)ccc2c1COC2=O [Example 23] . Reported pIC50?
7.15
